Origin of the recorded values: PubChem BioAssay AID624275

# Test system: CqsS sensor histidine kinase (Vibrio cholerae)
# TEST NAME: Light production inducers, absence of autoinducers, V. cholerae delta luxQ strain, confirmatory (AID 624275)
# CONDITION DETAILS: V. cholerae WN1103 delta luxQ, luciferase luminescence, 6 h
Active and inactive are the calls of the source. The rule behind the calls is not given here.
What AC40 was measured for each of the following?

Q: Endpoint output: AC40 of CCCn1nnnc1NCc1ccc(N(CC)CC)cc1 . Value?
Result: 90.1 nM

Q: Endpoint output: AC40 of CCCn1nnnc1NCc1ccc(C(C)C)cc1 . Value?
Result: 28.8 nM

Q: Endpoint output: AC40 of O=c1ncn(-c2cccc(Cl)c2)c2ccccc12 . Value?
Result: 29.4 nM

Q: Endpoint output: AC40 of Cc1c(Cl)cccc1-n1cnc(=O)c2ccccc21 . Value?
Result: > 35000 nM (inactive)

Q: Endpoint output: AC40 of CCOc1ccc(Nc2ccc3nonc3c2[N+](=O)[O-])cc1 . Value?
Result: 596 nM

Q: Endpoint output: AC40 of Cc1ccc(OCCNC(=O)c2cccc(C)c2)cc1 . Value?
Result: 309 nM

Q: Endpoint output: AC40 of COc1ccccc1NC(=O)COC(=O)c1oc2ccccc2c1C . Value?
Result: 2010 nM

Q: Endpoint output: AC40 of O=C(Nc1nnc(-c2ccc3c(c2)OCCO3)o1)C1CCCCC1 . Value?
Result: 2070 nM

Q: Endpoint output: AC40 of COc1ccc(Cl)cc1NC(=O)COC(=O)c1ccc(C)o1 . Value?
Result: 489 nM

Q: Endpoint output: AC40 of COc1ccccc1NC(=O)COC(=O)c1ccc(C)cc1 . Value?
Result: 2240 nM

Q: Endpoint output: AC40 of CCCn1nnnc1NCc1ccc(N2CCCC2)cc1 . Value?
Result: 29.2 nM

Q: Endpoint output: AC40 of Cc1ccc2cc3c(NC(=O)c4ccco4)nn(C)c3nc2c1 . Value?
Result: 4220 nM

Q: Endpoint output: AC40 of CCn1nnnc1NCc1ccc(N2CCCC2)cc1 . Value?
Result: 5.71 nM

Q: Endpoint output: AC40 of O=C(Cc1ccc(-c2ccccc2)cc1)NC1CCCC1 . Value?
Result: 118 nM

Q: Endpoint output: AC40 of CCC(C)NC(=O)Cc1ccc(-c2ccccc2)cc1 (stereo unspecified) . Value?
Result: 1920 nM

Q: Endpoint output: AC40 of COc1ccccc1NC(=O)COC(=O)c1cc2c(s1)CCC2 . Value?
Result: 184 nM

###

What activation was measured for each of the following?
# System: CqsS sensor histidine kinase (Vibrio cholerae)
# TEST NAME: Light production inducers, absence of autoinducers, V. cholerae delta luxQ strain, confirmatory (AID 624275)
# CONDITION DETAILS: V. cholerae WN1103 delta luxQ, luciferase luminescence, 6 h; at 35 µM (top of the series)
Field: numeric (%). Do not append units.

Q: Endpoint output: activation of CCn1nnc(NCc2ccc(C)cc2)n1 . Value?
Result: 0.153

Q: Endpoint output: activation of CCCn1nnnc1NCc1ccccc1Cl . Value?
Result: 0.419

Q: Endpoint output: activation of Cc1ccc(CC(=O)NC2CCCC2)cc1 . Value?
Result: 10.3

Q: Endpoint output: activation of CCn1c(CC(=O)Nc2cccc(Cl)c2Cl)nnc1SCCOc1ccc(OC)cc1 . Value?
Result: 0.37
